# TEST TARGET: HDAC7 (Homo sapiens, UniProt Q8WUI4)
# Sequence (Q8WUI4 1-952): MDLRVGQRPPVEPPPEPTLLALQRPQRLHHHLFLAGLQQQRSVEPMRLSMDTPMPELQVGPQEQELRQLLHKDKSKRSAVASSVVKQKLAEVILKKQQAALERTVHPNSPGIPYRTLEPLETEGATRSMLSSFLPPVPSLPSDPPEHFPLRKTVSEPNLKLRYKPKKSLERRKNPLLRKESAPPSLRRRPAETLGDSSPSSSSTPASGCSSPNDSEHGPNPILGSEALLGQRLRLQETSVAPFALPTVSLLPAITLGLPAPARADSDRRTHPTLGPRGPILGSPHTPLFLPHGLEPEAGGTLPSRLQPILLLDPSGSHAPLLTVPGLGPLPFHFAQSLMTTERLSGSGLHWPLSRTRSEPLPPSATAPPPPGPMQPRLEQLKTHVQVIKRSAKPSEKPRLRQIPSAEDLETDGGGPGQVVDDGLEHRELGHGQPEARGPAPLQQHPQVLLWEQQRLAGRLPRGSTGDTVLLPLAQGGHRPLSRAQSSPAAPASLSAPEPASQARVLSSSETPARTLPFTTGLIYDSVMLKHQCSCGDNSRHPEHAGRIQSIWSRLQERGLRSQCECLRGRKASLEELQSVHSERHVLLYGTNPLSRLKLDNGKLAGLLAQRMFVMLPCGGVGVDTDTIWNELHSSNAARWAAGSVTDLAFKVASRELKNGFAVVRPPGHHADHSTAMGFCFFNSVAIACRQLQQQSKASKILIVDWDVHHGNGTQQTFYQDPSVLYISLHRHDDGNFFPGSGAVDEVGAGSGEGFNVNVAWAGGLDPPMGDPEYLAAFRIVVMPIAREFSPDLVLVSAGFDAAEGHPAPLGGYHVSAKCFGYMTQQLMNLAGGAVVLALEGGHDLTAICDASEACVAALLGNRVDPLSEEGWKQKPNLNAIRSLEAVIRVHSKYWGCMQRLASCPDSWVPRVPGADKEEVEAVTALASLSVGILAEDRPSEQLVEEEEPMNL
# MEASUREMENT DESCRIPTION: HDAC enzyme activity test, HDAC7
# Type: biochemical
# ASSAY SETUP: Table 11, eleven HDAC isozymes; read-out: Inhibition ability (IC50) against HDAC7
MEASUREMENT KIND: pIC50
Schema: pIC50 number; meaning minus log10 of the concentration expressed in molar units.

For CN1CCN(C(=O)N(CCCCCCC(=O)NO)c2ccc(-c3ccc4cnn(C)c4c3)cc2)CC1 [CKD-581, reference compound] , what is its reported pIC50?
7.97

---

# TEST TARGET: Human recombinant HDAC1 (Homo sapiens)
# Construct: purchased Enzo Life Science Co. (named for the kit; assigned to the enzyme from the BML- catalogue prefix) BML-SE456
# Sequence (Q13547 whole entry): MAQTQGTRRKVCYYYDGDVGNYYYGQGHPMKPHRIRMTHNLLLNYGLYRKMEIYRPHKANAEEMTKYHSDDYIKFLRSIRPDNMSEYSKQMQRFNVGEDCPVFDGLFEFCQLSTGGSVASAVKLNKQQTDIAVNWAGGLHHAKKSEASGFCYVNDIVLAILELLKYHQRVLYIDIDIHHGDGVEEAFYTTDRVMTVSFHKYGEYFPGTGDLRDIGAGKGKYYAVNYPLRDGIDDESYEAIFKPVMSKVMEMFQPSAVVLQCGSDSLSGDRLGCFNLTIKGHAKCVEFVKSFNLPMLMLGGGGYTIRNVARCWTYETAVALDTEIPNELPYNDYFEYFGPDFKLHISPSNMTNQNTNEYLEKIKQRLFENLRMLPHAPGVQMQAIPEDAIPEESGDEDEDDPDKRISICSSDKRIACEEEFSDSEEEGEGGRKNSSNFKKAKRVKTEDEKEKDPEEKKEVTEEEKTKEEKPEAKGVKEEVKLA
# MEASUREMENT DESCRIPTION: HDAC enzyme activity test, HDAC1
# Assay type: biochemical
# ASSAY SETUP: Table 12; read-out: Inhibition ability (IC50) HDAC1
MEASUREMENT KIND: IC50 (µM)
State just the number; it will be interpreted in µM.

Known IC50 results, listed for orientation:
O=C(NO)c1ccc(Cn2c3c(c4ccccc42)C(=O)N(CCN2CCOCC2)CC3)cc1 | 3.46
CCN1CCN(CC2CCc3c(c4cc(F)ccc4n3Cc3ccc(C(=O)NO)cc3)C2=O)CC1 (centres unmarked) | 2.23
COC[C@@H]1CCCN1CCN1CCc2c(c3cc(F)ccc3n2Cc2ccc(C(=O)NO)cc2)C1=O | 13.2
O=C(CCCCCn1c2c(c3cc(F)ccc31)C(=O)C(CN1CCN(c3ccc(F)cc3)CC1)CC2)NO (centres unmarked) | 7.44
COCCN1CCN(CC2CCc3c(c4cc(F)ccc4n3Cc3ccc(C(=O)NO)cc3)C2=O)CC1 (centres unmarked) | 10.7

IC50 for `CN(CCO)CCN1CCc2c(c3cc(F)ccc3n2Cc2ccc(C(=O)NO)cc2)C1=O` ?
10

Recorded IC50 for O=C(NO)c1ccc(Cn2c3c(c4ccccc42)C(=O)C(CN2CCC(F)(F)C2)CC3)cc1 (centres unmarked) , please?
3.57

Item Cc1nccn1CC1CCc2c(c3ccccc3n2CCCCCC(=O)NO)C1=O (centres unmarked) has what recorded IC50?
3.08
